Test system: OVCAR-8 ovarian
Test: NCI-60 one-dose screen, 48 h (100 = growth as untreated, 0 = no growth, -100 = all killed)
Details: 10 µM unless noted
About 83,000 compounds went through this panel and 20% of them were active in at least one assay; those are over-represented in the sample as a whole.
READOUT TYPE: growth (%)
One number for each entry, in %.

Hey, quick one: what's growth for each of these?
1. CN(C)c1ccc(/C=C/C(=O)c2ccc(-n3cc(CN4CCN(c5cc6c(cc5F)c(=O)c(C(=O)O)cn6C5CC5)CC4)nn3)cc2)cc1
2. Cc1cnc(C(=O)NNc2nc3sc4c(c3c(=O)n2C)C(C)CCC4)cn1 (stereo not given)
3. Cc1cc(=O)[nH]c2c(C#N)cnn12

23.3
5.29
98.7

Give measured growth for every item shown.
1. O=C(CCCCCCN1CC(=O)N2[C@H](c3cc(Br)cs3)c3[nH]c4ccccc4c3C[C@H]2C1=O)NO
2. CCOC(=O)CNP(=O)(OC[C@@H](Cc1ccccc1)NC(=O)c1cc2ccccc2s1)Oc1ccccc1 (stereo not given in full)

[28, 89.1]

Give growth for each listed item.
1. Cc1ccc(Sc2oc(-c3ccc(C)cc3)nc2[P+](c2ccccc2)(c2ccccc2)c2ccccc2)cc1
2. N#Cc1c(-c2ccc(Cl)cc2)nc(NN=Cc2cccc(O)c2)nc1N1CCOCC1
3. O=C(Cn1c(=O)sc2nc3ccccc3nc21)Nc1ncc(Cc2cccc(Cl)c2Cl)s1
4. CN1C(=O)/C(=C/c2cn(-c3ccccc3)nc2-c2ccccc2)SC1=S
5. C=C(C)[C@@H]1CC[C@]2(C)[C@H](CC=C3[C@@H]4[C@H](C)[C@@H](C)CC[C@]4(CO)CC[C@]32C)[C@@]1(C)CCCN

5.45
65.4
97
105
-48.5

Would you mind giving growth for every compound in the list below?
1. CC(C)n1cnc2c(=S)nc[nH]c21
2. COc1cc(NC(C)CCCNC(C)C)c2ncccc2c1OC (stereo not given)
3. CCN1CCN(Cc2cn(CC(=O)Nc3ccc4c(ccn4Cc4ccccc4)c3)nn2)CC1
4. O=C(c1cc2ccccc2o1)c1nn(-c2ccccc2)/c(=N/N=Cc2cn(-c3ccccc3)nc2-c2cc3ccccc3oc2=O)s1
5. COc1cc(OC)c2sc(-c3ccc(-n4cncc4-c4ccc(OC)c(OC)c4)cc3)nc2c1
6. Cc1ccc(-c2cc(-c3ccc(Cl)cc3)nc(NC(=O)c3cccnc3)n2)cc1
7. O=C1/C(=C/c2ccc(F)cc2)COc2ccc(O)cc21
8. CS(=O)(=O)C1=CN(CCO)C(=O)N2CCCN=C12

1: 109; 2: 91.3; 3: 99.7; 4: 97.5; 5: 71; 6: 103; 7: 87.4; 8: 108

Take each entry in turn and give its growth.
1. COc1ccc2c3c([nH]c2c1)C(=O)c1nc(C)ccc1C3=O
2. CN(C)CCNc1nc2c3cc(Cl)ccc3nn2c2ccccc12

1. 48.5
2. 36.1

# credit: PubChem BioAssay (NCI)
